- experimental.system: Cbl-B (Homo sapiens, UniProt Q13191)
- Construct: MSD-Based Assay for Degradation of Cbl-B in THP-1 Cells; endogenous in cells; host or cells: THP-1 (title) / Jurkat (protocol text)
- Sequence (Q13191 whole entry): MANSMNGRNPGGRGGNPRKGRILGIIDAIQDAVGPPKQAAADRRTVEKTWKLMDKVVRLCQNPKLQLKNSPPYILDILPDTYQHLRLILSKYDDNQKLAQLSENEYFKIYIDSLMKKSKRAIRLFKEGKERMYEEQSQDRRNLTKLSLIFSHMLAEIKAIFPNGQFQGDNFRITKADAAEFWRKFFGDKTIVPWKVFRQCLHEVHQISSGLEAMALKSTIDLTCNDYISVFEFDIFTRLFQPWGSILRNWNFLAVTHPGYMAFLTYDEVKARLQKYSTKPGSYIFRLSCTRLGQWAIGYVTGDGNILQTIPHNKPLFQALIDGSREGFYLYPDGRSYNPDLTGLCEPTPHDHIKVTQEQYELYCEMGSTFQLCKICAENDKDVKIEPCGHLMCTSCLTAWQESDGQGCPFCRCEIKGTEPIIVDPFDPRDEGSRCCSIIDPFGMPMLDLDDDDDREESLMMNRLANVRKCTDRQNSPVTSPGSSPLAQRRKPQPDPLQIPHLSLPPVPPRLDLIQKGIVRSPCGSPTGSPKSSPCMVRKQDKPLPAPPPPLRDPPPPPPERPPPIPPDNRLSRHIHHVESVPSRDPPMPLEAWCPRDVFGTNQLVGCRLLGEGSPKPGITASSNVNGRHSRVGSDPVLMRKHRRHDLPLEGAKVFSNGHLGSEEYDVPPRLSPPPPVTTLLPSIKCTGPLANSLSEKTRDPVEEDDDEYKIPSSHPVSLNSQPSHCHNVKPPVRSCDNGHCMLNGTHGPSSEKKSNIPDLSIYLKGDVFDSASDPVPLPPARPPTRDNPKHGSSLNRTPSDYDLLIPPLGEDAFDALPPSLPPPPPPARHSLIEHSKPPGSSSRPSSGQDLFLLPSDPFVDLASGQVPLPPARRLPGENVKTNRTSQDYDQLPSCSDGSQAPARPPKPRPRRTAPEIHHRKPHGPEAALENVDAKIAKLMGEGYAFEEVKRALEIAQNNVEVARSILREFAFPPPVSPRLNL
- procedure.details: MSD-based assay for degradation of Cbl-B in THP-1 cells
- Format: cell-based
- particulars: Cbl-B degradation, Jurkat cells seeded (heading: THP-1 cells), 24 hours incubation, MSD readout
// DC50 lookup, one value per entry
observation.type: DC50

- CN(C(=O)c1ccc(N2CCN(c3ccc4c(c3)CN([C@@H]3CCC(=O)NC3=O)C4=O)CC2)cc1)C1CCN(Cc2cc(C(F)(F)F)c3cn(-c4cccc([C@H](c5nncn5C)C5CCC5)c4)c(=O)n3c2)CC1 [Compound 137]: 30 to 300 nM
- CO[C@H]1C[C@@](c2cccc(-n3cc4c(C(F)(F)F)cc(CN5CCC(OCCN6CCC(CN7CCN(c8ccc9c(c8)CN([C@H]8CCC(=O)NC8=O)C9=O)CC7)CC6)CC5)cn4c3=O)c2)(c2nncn2C)C1 [Compound 74]: 1000 to 10000 nM

###

- experimental.system: Cbl-B (Homo sapiens, UniProt Q13191)
- Construct: MSD-Based Assay for Degradation of Cbl-B in THP-1 Cells; endogenous in cells; host or cells: THP-1 (title) / Jurkat (protocol text)
- procedure.details: MSD-based assay for degradation of Cbl-B in THP-1 cells
- Type: cell-based
- particulars: Cbl-B degradation, Jurkat cells seeded (heading: THP-1 cells), 24 hours incubation, MSD readout
// DC50 lookup, one value per entry
observation.type: DC50

- Cn1cnnc1[C@@H](c1cccc(N2Cc3c(cc(CN4CCC[C@H](OCc5ccc(CC6CCN(c7ccc8c(c7)CN([C@@H]7CCC(=O)NC7=O)C8=O)CC6)cc5)C4)cc3C(F)(F)F)C2=O)c1)C1CCC1 (single isomer, unassigned): > 10 µM
- CN(C(=O)c1ccc(CN2CCN(c3ccc4c(c3)CN([C@H]3CCC(=O)NC3=O)C4=O)CC2)cc1)C1CCN(Cc2cc(C(F)(F)F)c3cn(-c4cccc([C@H](c5nncn5C)C5CCC5)c4)c(=O)n3c2)CC1: < 0.03 µM
- Cn1cnnc1[C@@H](c1cccc(-n2cc3c(C(F)(F)F)cc(CN4CCC(CN5CCN(c6ccc7c(c6)CN([C@@H]6CCC(=O)NC6=O)C7=O)CC5)CC4)cn3c2=O)c1)C1CCC1 (single isomer, unassigned): > 10 µM
- Cn1cnnc1[C@@H](c1cccc(-n2cc3c(C(F)(F)F)cc(CN4CCC(OCc5ccc(CC6CCN(c7ccc8c(c7)CN([C@H]7CCC(=O)NC7=O)C8=O)CC6)cc5)CC4)cn3c2=O)c1)C1CCC1 (single isomer, unassigned): < 0.03 µM

###

- experimental.system: Cbl-B (Homo sapiens)
- Construct: MSD-Based Assay for Degradation of Cbl-B in THP-1 Cells; endogenous in cells; host or cells: THP-1 (title) / Jurkat (protocol text)
- procedure.details: MSD-based assay for degradation of Cbl-B in THP-1 cells
- Format: cell-based
- particulars: Cbl-B degradation, Jurkat cells seeded (heading: THP-1 cells), 24 hours incubation, MSD readout; read-out: Dmax
// Dmax lookup, one value per entry
observation.type: Dmax

• Cn1cnnc1CC1(c2cccc(-n3cc4c(C(F)(F)F)cc(CN5CCC(OCCOCc6ccc(COCCNc7cccc8c7C(=O)N(C7CCC(=O)NC7=O)C8=O)cc6)CC5)cn4c3=O)c2)COC1 (centres unmarked) = 50 to 70%
• CN(C(=O)c1ccc(CN2CCN(c3ccc4c(c3)CN([C@@H]3CCC(=O)NC3=O)C4=O)CC2)cc1)C1CCN(Cc2cc(C(F)(F)F)c3cn(-c4cccc(C5(Cc6nncn6C)COC5)c4)c(=O)n3c2)CC1 (single isomer, unassigned) = 30 to 50%

###

// DC50 lookup, one value per entry
- experimental.system: Cbl-B (Homo sapiens, UniProt Q13191)
- Construct: MSD-Based Assay for Degradation of Cbl-B in THP-1 Cells; endogenous in cells; host or cells: THP-1 (title) / Jurkat (protocol text)
- procedure.details: MSD-based assay for degradation of Cbl-B in THP-1 cells
- Format: cell-based
- particulars: Cbl-B degradation, Jurkat cells seeded (heading: THP-1 cells), 24 hours incubation, MSD readout
observation.type: DC50

- Cn1cnnc1[C@@H](c1cccc(-n2cc3c(C(F)(F)F)cc(CN4CCC(CC(=O)N5CCC(CC6CCN(c7ccc8c(c7)CN([C@H]7CCC(=O)NC7=O)C8=O)CC6)CC5)CC4)cn3c2=O)c1)C1CCC1: < 30 nM
- CN(CC1CCN(Cc2cc(C(F)(F)F)c3cn(-c4cccc(C5(Cc6nncn6C)COC5)c4)c(=O)n3c2)CC1)C(=O)c1ccc(N2CCN(c3ccc4c(c3)CN([C@H]3CCC(=O)NC3=O)C4=O)CC2)cc1: < 30 nM
- Cn1cnnc1CC1(c2cccc(-n3cc4c(C(F)(F)F)cc(CN5CCC[C@@H](OCCc6ccc(CN7CCN(c8ccc9c(c8)CN([C@H]8CCC(=O)NC8=O)C9=O)CC7)cc6)C5)cn4c3=O)c2)COC1 (single isomer, unassigned): < 30 nM
- Cn1cnnc1[C@@H](c1cccc(-n2cc3c(C(F)(F)F)cc(CN4CCC(OCCN5CCN(CC6CCN(c7ccc8c(c7)CN([C@@H]7CCC(=O)NC7=O)C8=O)CC6)CC5)CC4)cn3c2=O)c1)C1CCC1 (single isomer, unassigned): 1000 to 10000 nM

###

- experimental.system: Cbl-B (Homo sapiens, UniProt Q13191)
- Construct: MSD-Based Assay for Degradation of Cbl-B in THP-1 Cells; endogenous in cells; host or cells: THP-1 (title) / Jurkat (protocol text)
- procedure.details: MSD-based assay for degradation of Cbl-B in THP-1 cells
- Assay type: cell-based
- particulars: Cbl-B degradation, Jurkat cells seeded (heading: THP-1 cells), 24 hours incubation, MSD readout
// DC50 lookup, one value per entry
observation.type: DC50

* CN(CCC1CCN(Cc2cc(C(F)(F)F)c3cn(-c4cccc([C@H](c5nncn5C)C5CCC5)c4)c(=O)n3c2)CC1)C(=O)c1ccc(N2CCN(c3ccc4c(c3)CN([C@H]3CCC(=O)NC3=O)C4=O)CC2)cc1 (single isomer, unassigned) | < 0.03 µM
* Cn1cnnc1[C@@H](c1cccc(-n2cc3c(C(F)(F)F)cc(CN4CCC(OCc5ccc(N6CCN(c7ccc8c(c7)CN([C@@H]7CCC(=O)NC7=O)C8=O)CC6)cc5)CC4)cn3c2=O)c1)C1CCC1 (single isomer, unassigned) | > 10 µM

###

- experimental.system: Cbl-B (Homo sapiens)
- Construct: MSD-Based Assay for Degradation of Cbl-B in THP-1 Cells; endogenous in cells; host or cells: THP-1 (title) / Jurkat (protocol text)
- procedure.details: MSD-based assay for degradation of Cbl-B in THP-1 cells
- Type: cell-based
- particulars: Cbl-B degradation, Jurkat cells seeded (heading: THP-1 cells), 24 hours incubation, MSD readout; read-out: Dmax
observation.type: Dmax

- Cn1cnnc1[C@@H](c1cccc(-n2cc3c(C(F)(F)F)cc(CN4CCC(OCc5ccc(COCCNc6cccc7c6C(=O)N(C6CCC(=O)NC6=O)C7=O)cc5)CC4)cn3c2=O)c1)C1CCC1 (stereo partly drawn) [Compound 13]: < 30%
- Cn1cnnc1[C@@H](c1cccc(-n2cc3c(C(F)(F)F)cc(CN4CCC(CN5CCC(CN6CCN(c7cc8c(cc7F)C(=O)N(C7CCC(=O)NC7=O)C8=O)CC6)CC5)CC4)cn3c2=O)c1)C1CCC1 (stereo partly drawn) [Compound 29]: < 30%
- CN(CCOCc1cc(C(F)(F)F)c2cn(-c3cccc([C@H](c4nncn4C)C4CCC4)c3)c(=O)n2c1)C(=O)c1ccc(N2CCN(c3ccc4c(c3)CN([C@@H]3CCC(=O)NC3=O)C4=O)CC2)cc1 (single isomer, unassigned) [Compound 147]: < 30%
- Cn1cnnc1CC1(c2cccc(-n3cc4c(C(F)(F)F)cc(CN5CCC(OCCNc6cccc7c6C(=O)N(C6CCC(=O)NC6=O)C7=O)CC5)cn4c3=O)c2)COC1 (stereo not drawn) [Compound 36]: < 30%
- CO[C@H]1C[C@](c2cccc(-n3cc4c(C(F)(F)F)cc(CN5CCC(CN(C)C(=O)c6ccc(N7CCN(c8ccc9c(c8)CN([C@@H]8CCC(=O)NC8=O)C9=O)CC7)cc6)CC5)cn4c3=O)c2)(c2nncn2C)C1 [Compound 168]: < 30%
- Cn1cnnc1CC1(c2cccc(-n3cc4c(C(F)(F)F)cc(CN5CCC[C@@H](OCCc6ccc(CN7CCN(c8ccc9c(c8)CN([C@H]8CCC(=O)NC8=O)C9=O)CC7)cc6)C5)cn4c3=O)c2)COC1 (single isomer, unassigned) [Compound 240]: > 70%

###

- experimental.system: Cbl-B (Homo sapiens, UniProt Q13191)
- Construct: MSD-Based Assay for Degradation of Cbl-B in THP-1 Cells; endogenous in cells; host or cells: THP-1 (title) / Jurkat (protocol text)
- procedure.details: MSD-based assay for degradation of Cbl-B in THP-1 cells
- Assay type: cell-based
- particulars: Cbl-B degradation, Jurkat cells seeded (heading: THP-1 cells), 24 hours incubation, MSD readout; read-out: Dmax
observation.type: Dmax

• CO[C@H]1C[C@@](c2cccc(-n3cc4c(C(F)(F)F)cc(CN5CCC(CN(C)C(=O)c6ccc(N7CCN(c8ccc9c(c8)CN([C@@H]8CCC(=O)NC8=O)C9=O)CC7)cc6)CC5)cn4c3=O)c2)(c2nncn2C)C1 [Compound 167] = < 30%
• Cn1cnnc1[C@@H](c1cccc(-n2cc3c(C(F)(F)F)cc(CN4CCC(CC(=O)N5CCC(CN6CCN(c7ccc8c(c7)CN([C@H]7CCC(=O)NC7=O)C8=O)CC6)CC5)CC4)cn3c2=O)c1)C1CCC1 (single isomer, unassigned) [Compound 112] = > 70%
• Cn1cnnc1[C@@H](c1cccc(-n2cc3c(C(F)(F)F)cc(CN4CCC(OCCNc5cccc6c5C(=O)N(C5CCC(=O)NC5=O)C6=O)CC4)cn3c2=O)c1)C1CCC1 (stereo partly shown) [Compound 37] = < 30%
• Cn1cnnc1[C@@H](c1cccc(-n2cc3c(C(F)(F)F)cc(CN4CCC(CC(=O)N5CCC(C6CCN(c7ccc8c(c7)CN([C@H]7CCC(=O)NC7=O)C8=O)CC6)CC5)CC4)cn3c2=O)c1)C1CCC1 (single isomer, unassigned) [Compound 178] = > 70%
